- system_tested: MRP2 (Rattus norvegicus)
- Sequence (Q63120 whole entry): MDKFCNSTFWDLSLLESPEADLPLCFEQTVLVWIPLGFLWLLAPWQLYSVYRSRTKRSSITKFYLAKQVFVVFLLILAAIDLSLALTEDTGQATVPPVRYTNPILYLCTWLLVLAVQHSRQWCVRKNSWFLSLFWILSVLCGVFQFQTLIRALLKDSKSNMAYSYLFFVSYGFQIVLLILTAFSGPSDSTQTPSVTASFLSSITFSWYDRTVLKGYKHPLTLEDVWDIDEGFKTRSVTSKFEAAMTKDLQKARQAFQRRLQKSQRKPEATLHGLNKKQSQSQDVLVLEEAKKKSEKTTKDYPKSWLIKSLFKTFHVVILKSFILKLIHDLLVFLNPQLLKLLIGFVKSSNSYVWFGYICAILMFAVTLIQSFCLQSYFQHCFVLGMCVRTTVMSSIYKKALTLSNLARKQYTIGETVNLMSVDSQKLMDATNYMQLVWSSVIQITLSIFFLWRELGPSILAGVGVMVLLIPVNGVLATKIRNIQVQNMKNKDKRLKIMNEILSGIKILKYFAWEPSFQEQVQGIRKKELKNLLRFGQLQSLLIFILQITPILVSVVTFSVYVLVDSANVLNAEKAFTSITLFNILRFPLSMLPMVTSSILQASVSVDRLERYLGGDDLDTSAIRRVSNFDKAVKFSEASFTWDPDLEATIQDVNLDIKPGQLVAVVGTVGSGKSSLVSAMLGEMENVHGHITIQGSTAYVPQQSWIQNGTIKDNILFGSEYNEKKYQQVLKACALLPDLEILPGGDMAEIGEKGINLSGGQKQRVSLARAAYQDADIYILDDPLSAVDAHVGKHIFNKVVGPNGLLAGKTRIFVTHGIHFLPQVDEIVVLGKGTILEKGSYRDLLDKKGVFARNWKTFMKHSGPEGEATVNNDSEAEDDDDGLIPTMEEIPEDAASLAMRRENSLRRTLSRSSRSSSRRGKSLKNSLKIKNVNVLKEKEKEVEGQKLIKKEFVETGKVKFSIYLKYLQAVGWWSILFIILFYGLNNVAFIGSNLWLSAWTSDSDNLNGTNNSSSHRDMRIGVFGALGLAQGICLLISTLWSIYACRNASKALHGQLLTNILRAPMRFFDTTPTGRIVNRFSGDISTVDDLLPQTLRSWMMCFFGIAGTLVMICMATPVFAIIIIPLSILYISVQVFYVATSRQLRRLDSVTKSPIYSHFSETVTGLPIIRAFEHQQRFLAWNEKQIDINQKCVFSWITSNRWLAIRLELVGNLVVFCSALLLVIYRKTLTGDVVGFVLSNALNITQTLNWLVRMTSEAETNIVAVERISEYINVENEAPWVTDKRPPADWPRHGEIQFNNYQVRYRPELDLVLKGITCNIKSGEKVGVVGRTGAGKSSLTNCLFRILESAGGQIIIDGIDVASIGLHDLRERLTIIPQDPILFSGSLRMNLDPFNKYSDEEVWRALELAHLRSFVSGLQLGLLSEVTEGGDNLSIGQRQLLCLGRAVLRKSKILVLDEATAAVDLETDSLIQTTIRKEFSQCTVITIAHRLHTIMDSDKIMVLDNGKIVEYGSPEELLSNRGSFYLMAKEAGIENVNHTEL
- test_description: Influence of emodin on MRP2 function: pravastatin bidirectional transport in the presence of emodin (Ussing chamber)
- Assay type: in vitro ADME
- Parameters: intestinal segments including duodenum, jejunum, ileum, and colon from anesthetized rats were immediately removed by surgery; from tissue; host or cells: stripped rat intestine (jejunum and ileum in validation; jejunum for the emodin studies)
- measurement_parameters: rat, pH 6.5, with emodin 740 μM on mucosal side, pravastatin 47 μM, rat jejunum, emodin 740 μM on mucosal side; read-out: Papp S-M in the presence of emodin
outcome_measure: Papp at 47 μM (×10⁻⁶ cm/s)
Give a bare numeral; the unit ×10⁻⁶ cm/s is implied.

Any idea what Papp at 47 μM was measured for CC[C@H](C)C(=O)O[C@H]1C[C@H](O)C=C2C=C[C@H](C)[C@H](CC[C@@H](O)C[C@@H](O)CC(=O)O)[C@H]21 [Pravastatin] ?
105

====

- Test system: P-gp
- test_description: Influence of emodin on P-gp function: digoxin bidirectional transport in the presence of emodin (Ussing chamber)
- Format: in vitro ADME
- measurement_parameters: rat, pH 6.5, digoxin 25 μM, rat jejunum, without emodin; read-out: Papp S-M, control
outcome_measure: Papp at 25 μM (×10⁻⁶ cm/s)
Write the answer as a number in ×10⁻⁶ cm/s, unit excluded.

I have this compound here, C[C@H]1O[C@@H](O[C@H]2[C@@H](O)C[C@H](O[C@H]3[C@@H](O)C[C@H](O[C@H]4CC[C@@]5(C)[C@H](CC[C@@H]6[C@@H]5C[C@@H](O)[C@]5(C)[C@@H](C7=CC(=O)OC7)CC[C@]65O)C4)O[C@@H]3C)O[C@@H]2C)C[C@H](O)[C@@H]1O [Digoxin] , and I need its recorded Papp at 25 μM.
152

====

- System: P-gp
- test_description: in vitro
- measurement_parameters: rat, pH 6.5, Papp M-S, control, rat colon, without inhibitor
outcome_measure: Papp
Give the figure together with its unit, number first.

Which Papp value is on record for C[C@H]1O[C@@H](O[C@H]2[C@@H](O)C[C@H](O[C@H]3[C@@H](O)C[C@H](O[C@H]4CC[C@@]5(C)[C@H](CC[C@@H]6[C@@H]5C[C@@H](O)[C@]5(C)[C@@H](C7=CC(=O)OC7)CC[C@]65O)C4)O[C@@H]3C)O[C@@H]2C)C[C@H](O)[C@@H]1O ?
63.1 ×10⁻⁶ cm/s

====

- System: P-gp
- test_description: Influence of emodin on P-gp function: digoxin bidirectional transport in the presence of emodin (Ussing chamber)
- Assay type: in vitro ADME
- measurement_parameters: rat, pH 6.5, with emodin 185 μM on mucosal side, digoxin 25 μM, rat jejunum, emodin 185 μM on mucosal side; read-out: Papp M-S in the presence of emodin
- Procedure: The four intestinal segments including duodenum, jejunum, ileum, and colon from anesthetized rats were immediately removed by surgery and washed with KRB solution. Each section of the intestinal segments was then placed in cold (on ice), bubbled (O2:CO2 95:5) KRB buffer. […] In this study, the effects of the three efflux transporters on emodin intestinal absorption were investigated. […] Changes of the bidirectional transport characteristic were measured before and after adding emodin to the mucosal side. […]
outcome_measure: Papp at 25 μM (×10⁻⁶ cm/s)
Kindly provide the numeric value in ×10⁻⁶ cm/s only, without the unit symbol.

Name the reported Papp at 25 μM value associated with the compound C[C@H]1O[C@@H](O[C@H]2[C@@H](O)C[C@H](O[C@H]3[C@@H](O)C[C@H](O[C@H]4CC[C@@]5(C)[C@H](CC[C@@H]6[C@@H]5C[C@@H](O)[C@]5(C)[C@@H](C7=CC(=O)OC7)CC[C@]65O)C4)O[C@@H]3C)O[C@@H]2C)C[C@H](O)[C@@H]1O
55.8
